Test: BSK_CASM3C_Proliferation: Cell Proliferation Assessment in the BioMAP Diversity Plus: CASM3C Assay (AID 2283047);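 also: sulforhodamine B total protein stain as relative cell number at 560 nm; sub-confluent cells exposed 48 h before staining; fitted both ways against DMSO so gain or loss of cell number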
Conditions: primary human coronary artery smooth muscle cells
Active and inactive are the calls of the source. The calls were made as follows: active = hit-call score of the fitted dose curve at least 0.9, where 1 is the maximum; inactive = score below 0.9.
API: response.call in true (1) = active, false (0) = inactive

INSERT INTO results (compound, qualitative_label) VALUES
  ('Fc1ccccc1[C@@H](F)COC1CCC(Nc2ncnc3[nH]ncc23)CC1 (some centres undefined)', 'true (1)'),
  ('Cc1[nH]cnc1C[C@H]1CCc2c(C)c3ccccc3n2C1=O', 'true (1)'),
  ('NC(=O)NO', 'false (0)'),
  ('Cc1ccc(O)cc1', 'false (0)'),
  ('Nc1ccc(Nc2ccccc2)cc1', 'true (1)');

GET /call?item= CC1(C)C(=O)N(Br)C(=O)N1Br returns the recorded outcome of this test.
false (0)

GET /call?item= COc1ccc(-n2nc(C(F)F)cc2-c2ccc(S(C)=O)cc2)cc1 (centres undefined) returns the recorded outcome of this test.
false (0)

GET /call?item= CC(O)CN(CCN(CC(C)O)CC(C)O)CC(C)O (centres undefined) returns the recorded outcome of this test.
false (0)

GET /call?item= O=c1n(CC2CO2)c(=O)n(CC2CO2)c(=O)n1CC1CO1 (centres undefined) returns the recorded outcome of this test.
true (1)

GET /call?item= Oc1ccc2c(c1)-c1ccccc1C2 returns the recorded outcome of this test.
true (1)

---

Target: rat Adrenergic, Alpha 1, Non-selective Receptor (Adra1), Adra1a (gene 29412) (UniProt P43140)
Sequence (P43140 whole entry, looked up): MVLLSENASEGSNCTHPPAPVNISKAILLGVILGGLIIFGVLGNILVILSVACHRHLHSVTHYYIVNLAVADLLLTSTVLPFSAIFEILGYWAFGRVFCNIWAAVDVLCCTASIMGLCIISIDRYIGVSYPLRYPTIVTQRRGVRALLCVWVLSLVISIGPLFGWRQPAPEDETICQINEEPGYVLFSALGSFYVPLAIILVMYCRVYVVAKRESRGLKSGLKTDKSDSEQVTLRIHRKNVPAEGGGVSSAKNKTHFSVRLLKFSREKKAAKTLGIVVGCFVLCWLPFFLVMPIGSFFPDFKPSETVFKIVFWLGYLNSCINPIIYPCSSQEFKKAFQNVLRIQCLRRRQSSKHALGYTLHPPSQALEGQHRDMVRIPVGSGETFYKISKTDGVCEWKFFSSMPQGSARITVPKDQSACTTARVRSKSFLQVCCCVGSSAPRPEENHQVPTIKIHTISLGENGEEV
Experiment: NVS_GPCR_rAdra1_NonSelective: NovaScreen (NVS) G Protein-Coupled Receptor Assay for rat Adrenergic, Alpha 1, Non-selective Receptor (Adra1) (AID 2283289)
Records with an inconclusive call do not appear. Calls of active or inactive are those of the source. Rule for the calls: active = hit-call score of the fitted dose curve at least 0.9, where 1 is the maximum; inconclusive = response in the unintended direction; inactive = score below 0.9.
API: response.call in active, inactive

Example entries begin here.
INSERT INTO measurements (molecule, qualitative_label) VALUES
  ('Cc1ccc(C)c(O)c1', 'inactive'),
  ('CC[C@H]1CC[C@H](NCc2cc3c(cc2OC)[C@H]2C[C@H]2C(=O)N3C)[C@H](c2ccccc2)N1', 'active'),
  ('COc1cccc(-c2ccc(/C=C\CN3CCCCCC3)cc2Cl)c1', 'active'),
  ('Nc1ccc(Nc2ccccc2)cc1', 'active'),
  ('CN(C)c1ccc(N=NS(=O)(=O)O)cc1', 'active');

GET /call?item= O=c1[nH]c2ccc(S(=O)CCN3CCC(Cc4ccc(F)cc4)CC3)cc2o1 (configuration not stated) returns the recorded outcome of this test.
active

GET /call?item= Cc1[nH]cnc1C[C@H]1CCc2c(C)c3ccccc3n2C1=O returns the recorded outcome of this test.
active

---

Test: CEETOX_H295R_OHPREG: CeeTox H295R High-throughput Steroidogenesis Assay for OH-Pregnenolone (OHPREG) (AID 2283434)
Details: actives raise or lower the signal
Activity calls are given as the source filed them. How the source made its calls: active means hit-call score of the fitted dose curve at least 0.9, where 1 is the maximum; inactive means score below 0.9.
metric: AC50

Before answering, review these 6 worked examples.
INSERT INTO assay_data (compound, result) VALUES
  ('CCC(C)(C)C(=O)O[C@H]1C[C@@H](C)C=C2C=C[C@H](C)[C@H](CC[C@@H]3C[C@@H](O)CC(=O)O3)[C@H]21', 'inactive'),
  ('CC1=CC(=O)CC(C)(C)C1', 'inactive'),
  ('CC[C@H](C)C(=O)O[C@H]1C[C@@H](C)C=C2C=C[C@H](C)[C@H](CC[C@@H]3C[C@@H](O)CC(=O)O3)[C@H]21', '0.026 µM (active)'),
  ('COC(=O)c1c(Cl)c(Cl)c(C(=O)OC)c(Cl)c1Cl', 'inactive'),
  ('Cc1ccc(N)cc1O', 'inactive'),
  ('COc1ccc(-n2nc(C(F)F)cc2-c2ccc(S(C)=O)cc2)cc1 (configuration not stated)', 'inactive');

Field AC50 (entry CC(C)c1cccc(C(C)C)c1N1C(=O)c2ccc(O)cc2C1=O ) reads 32.5 µM (active)

Field AC50 (entry CC(C)CC(C)(O)C#CC(C)(O)CC(C)C (configuration not stated) ) reads inactive

Field AC50 (entry Cc1c(-c2cccnc2)c2ccccc2n1CCCCC(=O)O ) reads inactive

Field AC50 (entry Cc1ccc(O)cc1 ) reads inactive

Field AC50 (entry O=c1[nH]c2ccc(S(=O)CCN3CCC(Cc4ccc(F)cc4)CC3)cc2o1 (configuration not stated) ) reads 3.63 µM (active)

Field AC50 (entry CNS(=O)(=O)c1cc(C(=O)N2CCC(CCN3C4CCC3CC(n3c(C)nc5ccccc53)C4)(c3cccc(F)c3)CC2)c(Cl)cc1F (configuration not stated) ) reads inactive

---

Read-out: TIMP metallopeptidase inhibitor 1 (TIMP1), TIMP1 (gene 7076)
Test: BSK_hDFCGF_TIMP1: BioMAP Diversity Plus: hDFCGF Assay for TIMP metallopeptidase inhibitor 1 (TIMP1) Biomarker Activity (AID 2283062)
Details: primary human foreskin fibroblasts; actives raise or lower the signal
Activity calls are given as the source filed them. How the source made its calls: active means hit-call score of the fitted dose curve at least 0.9, where 1 is the maximum; inactive means score below 0.9.
API: response.call in Yes for active, No for inactive

Example entries begin here.
INSERT INTO measurements (molecule, qualitative_label) VALUES
  ('CC(C)=CCC/C(C)=C/CO', 'No'),
  ('Cn1c(=O)c2c(ncn2C)n(C)c1=O', 'No'),
  ('CC(O)CN(CCN(CC(C)O)CC(C)O)CC(C)O (stereo not given)', 'No'),
  ('O=C(OC[C@H]1O[C@@H](OC(=O)c2cc(O)c(O)c(OC(=O)c3cc(O)c(O)c(O)c3)c2)[C@H](OC(=O)c2cc(O)c(O)c(OC(=O)c3cc(O)c(O)c(O)c3)c2)[C@@H](OC(=O)c2cc(O)c(O)c(OC(=O)c3cc(O)c(O)c(O)c3)c2)[C@@H]1OC(=O)c1cc(O)c(O)c(OC(=O)c2cc(O)c(O)c(O)c2)c1)c1cc(O)c(O)c(OC(=O)c2cc(O)c(O)c(O)c2)c1', 'No'),
  ('C1=CCCC=CCCC=CCC1', 'No'),
  ('COc1ccc(/C=C/S(=O)(=O)NC(=O)c2ccc(C)cc2Cl)cc1', 'No');

GET /call?item= CCOC(=O)c1ccc(C2CCC(NC[C@H](O)COc3ccc(O)c(NS(C)(=O)=O)c3)CC2)cc1 (stereo not given in full) returns the recorded outcome of this test.
Yes

GET /call?item= CC[C@H]1CC[C@H](NCc2cc3c(cc2OC)[C@H]2C[C@H]2C(=O)N3C)[C@H](c2ccccc2)N1 returns the recorded outcome of this test.
No

GET /call?item= O=C(O)c1cc(N=Nc2ccc(S(=O)(=O)Nc3ccccn3)cc2)ccc1O returns the recorded outcome of this test.
No

GET /call?item= CCc1cc(SCc2sc(-c3ccc(C(F)(F)F)cc3)nc2CN2CCN(c3ccc(OC)cc3)CC2)ccc1OCC(=O)O returns the recorded outcome of this test.
Yes

GET /call?item= CNS(=O)(=O)c1cc(C(=O)N2CCC(CCN3C4CCC3CC(n3c(C)nc5ccccc53)C4)(c3cccc(F)c3)CC2)c(Cl)cc1F (stereo not given) returns the recorded outcome of this test.
No

GET /call?item= O=C(NS(=O)(=O)/C=C/c1ccccc1)c1ccc(F)cc1Cl returns the recorded outcome of this test.
No

GET /call?item= CN(C)c1ccc(Cc2ccc(N(C)C)cc2)cc1 returns the recorded outcome of this test.
No

GET /call?item= COc1ccc(-n2nc(C(F)F)cc2-c2ccc(S(C)=O)cc2)cc1 (stereo not given) returns the recorded outcome of this test.
No

GET /call?item= CCCCCCc1ccc(O)cc1O returns the recorded outcome of this test.
Yes

GET /call?item= CCn1nc(Cc2ccccc2)cc1C1CCN(C[C@H]2C[C@H](N(C)[C@@H](C(=O)O)C(C)C)C[C@@H]2c2cccc(F)c2)CC1 returns the recorded outcome of this test.
No

GET /call?item= CC/C(=C\C(=N/O)C(N)=O)C(C)[N+](=O)[O-] (stereo not given) returns the recorded outcome of this test.
No

GET /call?item= NC(=O)NO returns the recorded outcome of this test.
No

GET /call?item= CCNc1ccccc1 returns the recorded outcome of this test.
No

GET /call?item= C=CC(=C)CCC=C(C)C returns the recorded outcome of this test.
No

---

Read-out: Glutathione S-Transferase (GSTA2), GSTA2 (gene 2939)
Test: LTEA_HepaRG_GSTA2: Life Technologies and Expression Analysis (LTEA) Assay for Glutathione S-Transferase (GSTA2) using HepaRG (AID 2283497)
Settings: mRNA level, 48 h; actives raise or lower the signal
Calls of active or inactive are those of the source. Rule for the calls: active = hit-call score of the fitted dose curve at least 0.9, where 1 is the maximum; inactive = score below 0.9.
API: response.call in active, inactive

INSERT INTO measurements (compound, qualitative_label) VALUES
  ('C1=CCCC=CCCC=CCC1', 'inactive'),
  ('COC(=O)CC(=O)OC', 'inactive'),
  ('COc1cccc(-c2ccc(/C=C\CN3CCCCCC3)cc2Cl)c1', 'active'),
  ('C=CC(=C)CCC=C(C)C', 'inactive'),
  ('O=C(NS(=O)(=O)/C=C/c1ccccc1)c1ccc(F)cc1Cl', 'inactive'),
  ('Cc1ccc(O)cc1', 'inactive'),
  ('O=C(O)CC(O)C(=O)O (configuration not stated)', 'inactive'),
  ('Cc1ccc(C)c(O)c1', 'inactive'),
  ('CC1(C)C(=O)N(Br)C(=O)N1Br', 'inactive'),
  ('CCOCCOCCOCCO', 'inactive');

GET /call?item= O=C1CCC(N2C(=O)c3ccccc3C2=O)C(=O)N1 (configuration not stated) returns the recorded outcome of this test.
inactive

GET /call?item= CCCCCCCCO returns the recorded outcome of this test.
inactive

GET /call?item= COc1ccc(/C=C/S(=O)(=O)NC(=O)c2ccc(C)cc2Cl)cc1 returns the recorded outcome of this test.
active

GET /call?item= C[C@](N)(Cc1ccc(O)c(O)c1)C(=O)O returns the recorded outcome of this test.
inactive

GET /call?item= CCOCCO returns the recorded outcome of this test.
inactive

GET /call?item= CCCN(C1CCN(C(=O)C2CCNCC2)CC1)[C@@H]1CCc2ccc(OC)cc2C1 returns the recorded outcome of this test.
active

GET /call?item= Cc1ccc(S(=O)(=O)O)cc1C returns the recorded outcome of this test.
inactive
